Origin of the recorded values: patent US20260109776A1

Target: T1, human TNFR14 (human, UniProt Q92956 39-283)
T1 construct: whole, on cells
T1 sequence (looked up): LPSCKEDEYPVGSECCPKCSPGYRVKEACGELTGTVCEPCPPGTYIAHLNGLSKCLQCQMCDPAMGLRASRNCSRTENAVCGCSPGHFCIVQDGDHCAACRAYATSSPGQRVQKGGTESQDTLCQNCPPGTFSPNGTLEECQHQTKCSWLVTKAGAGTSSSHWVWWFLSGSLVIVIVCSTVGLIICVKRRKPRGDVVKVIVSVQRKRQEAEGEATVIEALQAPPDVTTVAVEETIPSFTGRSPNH
Assay: flow cytometry, HEK293 transfectants
Measurement type: binding result

39C2 (antibody, IgG4, V domains shown, also called 4887-1) VH: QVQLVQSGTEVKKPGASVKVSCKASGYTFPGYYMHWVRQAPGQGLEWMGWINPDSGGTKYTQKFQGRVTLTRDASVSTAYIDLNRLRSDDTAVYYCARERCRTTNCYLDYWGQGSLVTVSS VL: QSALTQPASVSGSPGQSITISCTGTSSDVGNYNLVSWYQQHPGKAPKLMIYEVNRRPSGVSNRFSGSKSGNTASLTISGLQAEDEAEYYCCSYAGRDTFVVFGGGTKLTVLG : no binding
35F11 (antibody, IgG4, V domains shown, also called 4868-1) VH: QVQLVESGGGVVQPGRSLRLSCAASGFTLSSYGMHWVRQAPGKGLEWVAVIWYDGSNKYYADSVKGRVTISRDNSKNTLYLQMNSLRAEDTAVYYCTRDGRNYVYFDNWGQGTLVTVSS VL: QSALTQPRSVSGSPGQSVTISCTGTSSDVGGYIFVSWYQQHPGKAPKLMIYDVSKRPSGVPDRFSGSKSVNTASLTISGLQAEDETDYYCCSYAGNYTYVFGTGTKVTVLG : no binding
33H9 (antibody, IgG4, V domains shown, also called 4897-1) VH: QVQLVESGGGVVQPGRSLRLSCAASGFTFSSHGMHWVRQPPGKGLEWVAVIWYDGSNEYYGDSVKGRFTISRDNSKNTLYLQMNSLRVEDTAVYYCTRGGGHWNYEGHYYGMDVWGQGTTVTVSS VL: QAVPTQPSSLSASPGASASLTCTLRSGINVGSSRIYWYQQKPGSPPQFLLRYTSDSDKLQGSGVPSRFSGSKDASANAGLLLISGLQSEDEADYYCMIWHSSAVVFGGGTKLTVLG : no binding
